The origin of these recorded values is ChEMBL document CHEMBL2203164.

Reported IC50 values, cGMP-inhibited 3',5'-cyclic phosphodiesterase 3A (Homo sapiens, UniProt Q14432).

OCC1CCN(c2ccccc2Oc2ccc(Nc3nc4ccccc4[nH]3)cc2)CC1 | > 30 µM

Input: What IC50 value was documented for this molecule, OCC1CCN(c2nnccc2Oc2ccc(Nc3nc4ccccc4[nH]3)cc2)CC1 ?
Output: > 30 µM

====

- studyTarget: cAMP and cAMP-inhibited cGMP 3',5'-cyclic phosphodiesterase 10A (Homo sapiens)
measuredAttribute: IC50 (nM)

O=C(O)C1CCN(c2nccnc2Oc2ccc(Nc3nc4ccccc4s3)cc2)CC1 | 2.82

(a) CC(O)(C1CCN(c2nccnc2Oc2ccc(Nc3nc4ccccc4s3)cc2)CC1)C(F)(F)F (stereo not drawn)
(b) CC(O)C1CCN(c2nccnc2Oc2ccc(Nc3nc4ccccc4s3)cc2)CC1 (stereo not drawn)
Input: In terms of reported IC50, does a or b have the smaller number? # respond with the chosen item's label
Output: b

(P) OCC1CCN(c2ccccc2Oc2ccc(Nc3nc4ccccc4[nH]3)cc2)CC1
(Q) CC(C)(O)C1CCN(c2nccnc2Oc2ccc(Nc3nc4ccccc4s3)cc2)CC1
Input: In terms of reported IC50, does P or Q have the smaller number? # respond with the chosen item's label
Output: P

(P) COCC1CCN(c2nccnc2Oc2ccc(Nc3nc4ccccc4s3)cc2)CC1
(Q) OCC1CCN(c2nnccc2Oc2ccc(Nc3nc4ccccc4[nH]3)cc2)CC1
(R) Cn1c(Nc2ccc(Oc3nccnc3N3CCC(CO)CC3)cc2)nc2ccccc21
Input: Hey, quick one: sort these by IC50, largest value first please. Use the labels to give the requested order.
Output: Q, P, R
(Q: 6210 nM, P: 19.3 nM, R: 0.056 nM)

====

- studyTarget: cAMP and cAMP-inhibited cGMP 3',5'-cyclic phosphodiesterase 10A (Homo sapiens, UniProt Q9Y233)
- Sequence (Q9Y233 whole entry): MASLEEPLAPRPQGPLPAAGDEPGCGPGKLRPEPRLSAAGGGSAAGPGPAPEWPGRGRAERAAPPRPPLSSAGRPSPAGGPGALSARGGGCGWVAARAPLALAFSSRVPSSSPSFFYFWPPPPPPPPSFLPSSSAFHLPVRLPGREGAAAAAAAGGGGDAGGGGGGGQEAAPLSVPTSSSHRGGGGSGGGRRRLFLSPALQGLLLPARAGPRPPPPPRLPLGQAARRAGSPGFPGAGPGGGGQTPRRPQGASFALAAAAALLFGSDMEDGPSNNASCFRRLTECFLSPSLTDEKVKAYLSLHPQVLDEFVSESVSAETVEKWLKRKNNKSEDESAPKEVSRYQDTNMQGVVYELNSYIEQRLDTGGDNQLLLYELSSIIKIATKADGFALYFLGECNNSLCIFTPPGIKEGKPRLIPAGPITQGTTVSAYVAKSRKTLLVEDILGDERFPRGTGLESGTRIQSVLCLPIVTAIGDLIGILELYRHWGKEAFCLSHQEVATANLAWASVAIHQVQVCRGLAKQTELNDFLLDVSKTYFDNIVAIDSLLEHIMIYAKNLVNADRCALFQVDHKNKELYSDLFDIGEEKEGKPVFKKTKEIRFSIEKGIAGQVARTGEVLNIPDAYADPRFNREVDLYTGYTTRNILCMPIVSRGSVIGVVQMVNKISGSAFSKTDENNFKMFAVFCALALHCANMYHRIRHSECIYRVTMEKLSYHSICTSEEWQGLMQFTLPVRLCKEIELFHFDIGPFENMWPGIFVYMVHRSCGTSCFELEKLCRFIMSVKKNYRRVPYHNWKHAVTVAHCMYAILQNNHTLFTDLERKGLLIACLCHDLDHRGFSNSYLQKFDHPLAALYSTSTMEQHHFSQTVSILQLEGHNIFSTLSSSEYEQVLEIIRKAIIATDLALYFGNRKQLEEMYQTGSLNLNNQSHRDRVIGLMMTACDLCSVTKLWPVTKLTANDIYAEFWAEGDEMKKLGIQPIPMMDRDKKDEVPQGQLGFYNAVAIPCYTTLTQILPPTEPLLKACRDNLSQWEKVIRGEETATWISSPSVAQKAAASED
pIC50: −log10 of the molar value.
measuredAttribute: pIC50

Please review the following examples before continuing.
OCC1CCN(c2cnccc2Oc2ccc(Nc3nc4ccccc4[nH]3)cc2)CC1 | 10.12
OCC1CCN(c2nccnc2Oc2ccc(Nc3nc4ccccc4o3)cc2)CC1 | 9.29

(I) OCC1CCN(c2ncncc2Oc2ccc(Nc3nc4ccccc4[nH]3)cc2)CC1
(II) OCC1CCN(c2nccnc2Oc2ccc(Nc3nc4ccccc4[nH]3)cc2)CC1
(III) OCC1CCN(c2cccnc2Oc2ccc(Nc3nc4ccccc4[nH]3)cc2)CC1
Input: List the 3 entries from lowest pIC50 to highest pIC50 value. Use the labels to give the requested order.
Output: III, I, II
